Target: POS-1(1-206) (Caenorhabditis elegans, UniProt G5EF15 1-206)
Sequence (G5EF15 1-206): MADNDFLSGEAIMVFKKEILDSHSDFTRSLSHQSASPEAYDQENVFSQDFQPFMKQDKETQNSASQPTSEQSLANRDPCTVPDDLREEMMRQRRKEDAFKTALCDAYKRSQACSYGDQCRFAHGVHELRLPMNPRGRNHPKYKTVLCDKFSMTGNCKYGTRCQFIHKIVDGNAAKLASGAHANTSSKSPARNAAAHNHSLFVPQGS
Assay: F-EMSA
REPORTED_METRIC: Kd

Qu. Find the recorded Kd belonging to UUUUUCUUAUUCUAGACUAACCCUGUAAGCU (ssRNA) [∆3′ PRE] and report it.
Ans. 0.053 µM
